Exercise: state measured pest or weed control at 125 g/ha for each of the molecules provided.
System: redroot pigweed (Amaranthus retroflexus)
Experiment: Test A pre/postemergence
Assay type: in vivo
Details: Amaranthus retroflexus, pre-emergence, 240 h, Preemergence, 125 g ai/ha; 0 to 100 scale where 0 is no effect and 100 is complete control; approximately ten days; read-out: Plant response rating, Pigweed
Description: Seeds of barnyardgrass (Echinochloa crus-galli), crabgrass (Digitaria sanguinalis), giant foxtail (Setaria faberi), morningglory (Ipomoea spp.), redroot pigweed (Amaranthus retroflexus) and velvetleaf (Abutilon theophrasti) were planted into a blend of loam soil and sand and treated preemergence with a directed soil spray using test chemicals formulated in a non-phytotoxic solvent mixture which included a surfactant. […]
Give bare numbers, in %.

CCOC(=O)c1nc(-c2ccc3c(c2)OCO3)nc(N)c1Cl : 0

Provide pest or weed control at 125 g/ha for all items below, preserving their order.
1. Nc1nc(C2CC2)nc(C(=O)OCc2ccccc2)c1Cl
2. CNc1nc(C2CC2)nc(C(=O)OC)c1Cl
3. CCOC(=O)c1nc(-c2ccc(Cl)cc2)nc(N)c1Cl
4. COC(=O)c1nc(-c2ccc(Cl)cc2)nc(N)c1Cl
5. NC(=O)c1nc(C2CC2)nc(N)c1Br
6. CCOC(=O)c1nc(C(C)C)nc(N)c1Cl

1: 75; 2: 90; 3: 20; 4: 0; 5: 40; 6: 55

Provide pest or weed control at 125 g/ha for all items below, preserving their order.
1. COC(=O)c1nc(C2CC2)nc(N)c1OC
2. Nc1nc(C2CC2)nc(C(=O)[O-])c1Br.[Na+] [Compound 113, monosodium salt]

20
80
